Source: patent US20230002496A1

Biological target: T1, human GM-CSFRα, full length on cells (human, UniProt P15509 23-400)
T1 sequence: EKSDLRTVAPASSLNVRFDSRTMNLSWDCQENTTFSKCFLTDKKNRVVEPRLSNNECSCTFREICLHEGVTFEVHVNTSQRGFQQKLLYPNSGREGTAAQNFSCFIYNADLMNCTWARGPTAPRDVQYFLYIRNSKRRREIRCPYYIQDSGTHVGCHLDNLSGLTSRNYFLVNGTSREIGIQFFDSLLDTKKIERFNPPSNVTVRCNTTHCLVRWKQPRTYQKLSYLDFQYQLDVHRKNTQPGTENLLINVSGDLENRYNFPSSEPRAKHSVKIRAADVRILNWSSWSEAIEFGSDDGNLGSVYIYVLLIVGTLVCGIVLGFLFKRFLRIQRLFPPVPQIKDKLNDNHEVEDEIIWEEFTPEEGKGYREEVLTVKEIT
Test: cell-based or functional assay
attribute measured: IC50, TF-1 cell proliferation (µg/mL)
Response body: numeric value in µg/mL, unit text excluded.

# example entries with known answers
binder | unit abbreviation | assay result
E35-scFv LS28T (scFv, V domains shown) VH: QMQLVQSGAEVKKPGASVKVSCKVSGYTLTELSIHWVRQAPGKGLEWMGGFDPEDGETIYAQKFQGRVTMTGDTSTDTAYLELSSLRSEDTALYYCATGRYTSLATTYGFDYWGQGTLVTVSS VL: EIVMTQSPATLSLSPGERATLSCRASQTVSSYLAWYQQKPGQAPRLLIYGASSRATGIPDRFSGSGSGTDFTLTISRLEPEDFAVYYCQQYDNWPYTFGQGTKLEIK | µg/mL | 0.088
E35-scFv HT28C (scFv, V domains shown) VH: QMQLVQSGAEVKKPGASVKVSCKVSGYCLTELSIHWVRQAPGKGLEWMGGFDPEDGETIYAQKFQGRVTMTGDTSTDTAYLELSSLRSEDTALYYCATGRYTSLATTYGFDYWGQGTLVTVSS VL: EIVMTQSPATLSLSPGERATLSCRASQSVSSYLAWYQQKPGQAPRLLIYGASSRATGIPDRFSGSGSGTDFTLTISRLEPEDFAVYYCQQYDNWPYTFGQGTKLEIK | µg/mL | 0.12

Let us examine a further case.
What does the record list as IC50, TF-1 cell proliferation for E35-scFv LS26G (scFv, V domains shown) VH: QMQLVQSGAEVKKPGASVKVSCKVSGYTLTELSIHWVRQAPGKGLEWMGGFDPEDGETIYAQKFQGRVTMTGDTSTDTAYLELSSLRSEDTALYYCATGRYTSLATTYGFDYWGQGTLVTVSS VL: EIVMTQSPATLSLSPGERATLSCRAGQSVSSYLAWYQQKPGQAPRLLIYGASSRATGIPDRFSGSGSGTDFTLTISRLEPEDFAVYYCQQYDNWPYTFGQGTKLEIK ? 0.078
